Reference source for all entries: paper PMC9482650

# Target or system: GRASP, Q7Z6J2
# Sequence (Q7Z6J2 96-193): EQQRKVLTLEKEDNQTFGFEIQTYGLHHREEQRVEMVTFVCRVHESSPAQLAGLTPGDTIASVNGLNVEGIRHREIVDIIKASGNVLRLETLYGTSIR
# Assay protocol: holdup assay
# Parameters: key: below the threshold = too weak to quantify, mostly under pKd 3.1 to 4
# Experimental conditions: plain residues with an end cap or a label only (N-terminal biotin on a linker: ado-ado)
Please provide measured pKd for the entries that follow.
Numbers only.

# count of solved cases: 3
• SAKVRTVTSV [RASL11B, Q9BPW5] = 4.54
• PLSPEQPTKL [TRIM50, Q86XT4] = 4
• YNNCLEILRV [DCAF7, P61962] = 3.9

Here is the next item to consider.
Query :: What value of pKd has been recorded for this entry: YYKRPVQEWV [MMP24, Q9Y5R2]
Result :: 3.88
